Hey, just so you know, these numbers are from patent US12144910B2.

System: E. coli 23502
Conditions: 23502
No end group written: not given here.

[
  {
    "SUBSTANCE": "LKRLYKRVFRLLKRYYRQLRRPVR-OH [SAAP159]",
    "READOUT_UNITS": "µg/mL",
    "COMPARISON_SYMBOL": "=",
    "MIC": 64
  },
  {
    "SUBSTANCE": "H-RRLIRLILRLLR-NH2 [RR12]",
    "READOUT_UNITS": "µg/mL",
    "COMPARISON_SYMBOL": "=",
    "MIC": 4
  },
  {
    "SUBSTANCE": "RGLRRLGRKIVHVVKKYLPTVLRIIRRL-NH2 [SMAP28-3 + 2]",
    "READOUT_UNITS": "µg/mL",
    "COMPARISON_SYMBOL": "=",
    "MIC": 4
  },
  {
    "SUBSTANCE": "RFRRLRKKWRKRLKKI-NH2 [T9W]",
    "READOUT_UNITS": "µg/mL",
    "COMPARISON_SYMBOL": ">",
    "MIC": 512
  }
]
